- test: physchem
- Type: physicochemical
- condition-info: PEG-PLA (12:6 kDa) micelles in water, aqueous with cosolvent or surfactant or cyclodextrin
- Protocol: The mixture is mixed and sonicated for five minutes. The solvent is then removed by rotoevaporation at approximately 60° C. to provide a film. Hot (˜60° C.) deionized water is added to the oil and the solution is allowed to cool to ˜23° C. The solution is then centrifuged to remove the sediment in a 1.5 mL microtube, at ˜13,200 rpm for 1 minute. The supernatant is collected and filtered through a 0.2 μm PTFE filter. The resulting solution was dialyzed against H2O in 3500 MWCO tubing (SpectraPor). […]
reported-property: solubility

input: Consider the molecule `C=CCNC1=C2C[C@@H](C)C[C@H](OC)[C@H](O)[C@@H](C)/C=C(\C)[C@H](OC(N)=O)[C@@H](OC)/C=C\C=C(/C)C(=O)NC(=CC1=O)C2=O` and give its measured solubility.
output: ~1500 µg/mL

* * *

What PEG-b-PLA micelle diameter was measured for each of the following?
- test: Dynamic light scattering size of SDM and MDM
- Type: physicochemical
- condition-info: DLS, drug-loaded SDM or MDM
Numbers only, in nm.

Worked cases, PEG-b-PLA micelle diameter given:
{"molecule": "CC(=O)O[C@@]12CO[C@@H]1C[C@H](O)[C@@]1(C)C(=O)[C@H](O)C3=C(C)[C@@H](OC(=O)[C@H](O)[C@@H](NC(=O)OC(C)(C)C)c4ccccc4)C[C@@](O)([C@@H](OC(=O)c4ccccc4)[C@H]21)C3(C)C", "PEG-b-PLA micelle diameter (nm)": 37.3}
{"molecule": "C=CCNC1=C2C[C@@H](C)C[C@H](OC)[C@H](O)[C@@H](C)/C=C(\\C)[C@H](OC(N)=O)[C@@H](OC)/C=C\\C=C(/C)C(=O)NC(=CC1=O)C2=O", "PEG-b-PLA micelle diameter (nm)": 39.3}
{"molecule": "COc1cc([C@@H]2c3cc4c(cc3[C@@H](O[C@@H]3O[C@@H]5CO[C@@H](C)O[C@H]5[C@H](O)[C@H]3O)[C@H]3COC(=O)[C@H]23)OCO4)cc(OC)c1O [Etoposide]", "PEG-b-PLA micelle diameter (nm)": 32.6}
{"molecule": "CO[C@H]1C[C@@H]2CC[C@@H](C)[C@@](O)(O2)C(=O)C(=O)N2CCCC[C@H]2C(=O)O[C@H]([C@H](C)C[C@@H]2CC[C@@H](O)[C@H](OC)C2)CC(=O)[C@H](C)/C=C(\\C)[C@@H](O)[C@@H](OC)C(=O)[C@H](C)C[C@H](C)/C=C/C=C/C=C/1C", "PEG-b-PLA micelle diameter (nm)": 36.9}

Here is another molecule to look at.
input: Consider the molecule `CC(=O)O[C@H]1C(=O)[C@@]2(C)[C@H]([C@H](OC(=O)c3ccccc3)[C@]3(O)C[C@H](OC(=O)[C@H](O)[C@@H](NC(=O)c4ccccc4)c4ccccc4)C(C)=C1C3(C)C)[C@]1(OC(C)=O)CO[C@@H]1C[C@@H]2O` and give its measured PEG-b-PLA micelle diameter.
output: 38.8
